Attribution: patent US20220162215A1

Test system: Hela MKYP (Mito-Keima/YFP-Parkin) cells
test_description: Inspection of round cells
cond: 50.0 μM; Tables 6A-6D

| molecule | Inspection of round cells |
| --- | --- |
| CCCCNc1ncnc2[nH]c(C(F)(F)F)c(C)c12 [Compound 68] | 0 |
| CCC(Nc1ncnc2[nH]c(C(F)(F)F)cc12)c1cncnc1 (centres unmarked) [Compound 43] | 0 |
| C[C@@H](Nc1ncnc2[nH]cnc12)c1ccccc1 [Compound 52] | 0 |
| CCCCNc1ncnc2c1cc(C(F)(F)F)n2C(C)=O [Compound 69] | 0 |
| CN(C)C1CCC(CNc2ncnc3[nH]c(C(F)(F)F)cc23)CC1 (centres unmarked) [Compound 50] | 0 |
| c1ncc(CNc2ncnc3[nH]cnc23)cn1 [Compound 67] | 0 |
| CC(Nc1ncnc2[nH]c(C3CC3)nc12)c1ccccc1 (centres unmarked) [Compound 28] | 0 |
| CC(Nc1ncnc2[nH]cnc12)c1ccccc1 (centres unmarked) [Compound 71] | 0 |
| C[C@@H](Nc1ncnc2[nH]c(C(F)(F)F)cc12)c1ccccc1 [Compound 38] | 1 |
| C[C@H](Nc1ncnc2[nH]c(C(F)(F)F)cc12)c1cncnc1 [Compound 44] | 0 |
| C[C@H](Nc1ncnc2[nH]cnc12)c1ccccc1 [Compound 27] | 0 |
| C[C@@H](Nc1ncnc2[nH]c(C(F)(F)F)cc12)c1cncnc1 [Compound 70] | 0 |
| COc1ncc(CNc2ncnc3[nH]c(C(F)(F)F)cc23)cn1 [Compound 66] | 1 |
| FC(F)(F)c1cc2c(NC3CCCc4ccccc43)ncnc2[nH]1 (centres unmarked) [Compound 15] | 0 |

----------
# EC50 listing for each entry below
Test system: HeLa MKYP cells
test_description: Human mitophagy assay (HeLa MKYP, mtKeima FACS, FCCP/oligomycin)
Assay type: cell-based
cond: Homo sapiens, HeLa, Table 3 Supplement B; read-out: Mitophagy EC50 (HeLa mKeima assay)

| molecule | EC50 [µM] |
| --- | --- |
| CO[C@@H]1CCc2ccccc2[C@H]1Nc1ncnc2[nH]c(C(F)(F)F)cc12 | 22.1 |
| CC[C@@H]1CCc2ccccc2[C@@H]1Nc1ncnc2[nH]c(C(F)(F)F)cc12 | 1.81 |
| CO[C@@H]1COc2ccccc2[C@@H]1Nc1ncnc2[nH]c(C(F)(F)F)cc12 | 1.63 |
| CO[C@@H]1COc2ccccc2[C@H]1Nc1ncnc2[nH]c(C(F)(F)F)cc12 | 6.32 |
| OC[C@@H]1CCc2ccccc2[C@H]1Nc1ncnc2[nH]c(C(F)(F)F)cc12 | 1.15 |
| FC(F)(F)c1cc2c(NC3CCCc4ccccc43)ncnc2[nH]1 (stereo not drawn) | 0.44 |
| c1ccc2c(c1)CCC[C@H]2Nc1ncnc2[nH]c(C3CC3)cc12 | 0.47 |
| c1ccc2c(c1)OCC[C@H]2Nc1ncnc2[nH]c(C3CC3)cc12 | 1.98 |
| C[C@@H]1CCc2ccccc2[C@H]1Nc1ncnc2[nH]c(C(F)(F)F)cc12 | 4.18 |

----------
System: HeLa MKYP cells
test_description: Human mitophagy assay (HeLa MKYP, mtKeima FACS, FCCP/oligomycin)
Assay type: cell-based
cond: Homo sapiens, HeLa, Table 3 Supplement A; as measured in Table 3; read-out: Potency (EC50 Max Mitophagy) (μM)*
# EC50 listing for each entry below
quantity_measured: EC50

| smiles_input | reading |
| --- | --- |
| c1coc(CNc2ncnc3[nH]c(C4CCC4)nc23)c1 | > 25 µM |
| OC[C@@H](Nc1ncnc2[nH]cnc12)c1ccccc1 | > 25 µM |
| CCCCNc1ncnc2[nH]c(C(F)(F)F)c(C)c12 | > 25 µM |

----------
test_description: Solubility in 1× PBS
Type: physicochemical
# solubility listing for each entry below
quantity_measured: solubility (µM)

| smiles_input | reading |
| --- | --- |
| O[C@@H]1Cc2ccccc2[C@@H]1Nc1ncnc2[nH]c(C(F)(F)F)cc12 | 194 |
| CC[C@@H]1CCc2ccccc2[C@@H]1Nc1ncnc2[nH]c(C(F)(F)F)cc12 | 9.39 |
| C[C@@H]1CCc2ccccc2[C@H]1Nc1ncnc2[nH]c(C(F)(F)F)cc12 | 1 |

----------
# Toxicity (% positive for DAPI take-up at 50 μM)* listing for each entry below
Tested on: HeLa MKYP cells
test_description: Toxicity / cell death measured by DAPI staining (take-up)
Format: cell-based
cond: Table 3 Supplement A; 50 μM
Protocol: H2O2 treatment was performed as a control for cell death as measured by DAPI staining. Briefly, HeLa MKYP cells were plated at 10,000 cells/well in 96 well plates along with compounds at various concentrations. Following 16 hrs of incubation, cells were treated with 1 uM FCCP/oligomycin for 6 hours, then analyzed via FACS for the presence of mitochondria in lysosomes (as determined by an emissions spectrum shift from the pH-sensitive mtKeima tag).
quantity_measured: Toxicity (% positive for DAPI take-up at 50 μM)*

| compound | reading |
| --- | --- |
| FC(F)(F)c1cc2c(N[C@@H]3COc4ccccc43)ncnc2[nH]1 | 29.25% |
| C[C@H](Nc1ncnc2[nH]c(C3CC3)nc12)c1ccccc1 | 27.61% |
| c1ccc2c(c1)OCC2Nc1ncnc2[nH]cnc12 (stereo not shown) | 20.95% |
| Cc1nc2c(N[C@H](C)c3ccccc3)ncnc2[nH]1 | 9.69% |

----------
Test system: HeLa MKYP cells
test_description: Toxicity / cell death measured by DAPI staining (take-up)
Format: cell-based
cond: Table 3 Supplement A; 50 μM
quantity_measured: Toxicity (% positive for DAPI take-up at 50 μM)* (%)

| molecule | value_unit | reading |
| --- | --- | --- |
| CC(CNc1ncnc2[nH]cnc12)c1ccccc1 (stereo not drawn) | % | 28.92 |
| CCCCNc1ncnc2[nH]c(C3CCC3)nc12 | % | 6.13 |
| COc1ccccc1CNc1ncnc2nc[nH]c12 | % | 12.42 |

----------
Test system: HeLa MKYP cells
test_description: Toxicity / cell death measured by DAPI staining (take-up)
Assay type: cell-based
cond: Table 3; 50 μM
quantity_measured: Toxicity (% positive for DAPI takeup @ 50 μM) (%)

| molecule | value_unit | reading |
| --- | --- | --- |
| N#Cc1cccc2c1CCCC2Nc1ncnc2[nH]c(C(F)(F)F)cc12 (centres unmarked) | % | 71.2 |
| C[C@H]1CCc2ccccc2[C@@H]1Nc1ncnc2[nH]c(C(F)(F)F)cc12 [Compound 102] | % | 13.3 |
| C[C@H](Nc1ncnc2[nH]c(C(F)(F)F)cc12)c1ccccc1 | % | 90.8 |
| FC(F)(F)c1cc2c(NCc3cnccn3)ncnc2[nH]1 | % | 0.9 |
| C[C@H](Nc1ncnc2[nH]cnc12)c1ccccc1 | % | 11.7 |

----------
Tested on: HeLa MKYP cells
test_description: Human mitophagy assay (HeLa MKYP, mtKeima FACS, FCCP/oligomycin)
Type: cell-based
cond: Homo sapiens, HeLa, Table 3 Supplement A; as measured in Table 3; read-out: Potency (EC50 Max Mitophagy) (μM)*
# EC50 listing for each entry below
quantity_measured: EC50 (µM)

| compound | result_operator | reading |
| --- | --- | --- |
| O=S1(=O)Cc2ccccc2C(Nc2ncnc3[nH]c(C(F)(F)F)cc23)C1 (centres unmarked) [Compound 79] | > | 25 |
| c1ccc2c(c1)OCC[C@H]2Nc1ncnc2[nH]cnc12 [Compound 62] | > | 25 |
| CCCCNc1ncnc2[nH]c(C3CCC3)nc12 [EP-0035339, N-butyl-8-cyclobutyl-9H-purin-6-amine] | > | 25 |
| c1ccc(C2(Nc3ncnc4[nH]cnc34)CC2)cc1 [Compound 72] | > | 25 |
| C[C@@H](Nc1ncnc2[nH]cnc12)c1ccccc1 [Compound 52] | > | 25 |
| c1ccc2c(c1)CC[C@H]2Nc1ncnc2[nH]cnc12 [Compound 55] | > | 25 |
| C[C@H](Nc1ncnc2[nH]c(C(F)(F)F)cc12)c1cncnc1 [Compound 44] | = | 3.15 |
| C[C@@H](Nc1nccc2[nH]cnc12)c1ccccc1 [Compound 64] | > | 25 |
| C[C@H](Nc1ncnc2[nH]c(C(F)(F)F)cc12)c1ccccc1 [Compound 40] | = | 0.02 |
| CN1CC[C@H](Nc2ncnc3[nH]c(C(F)(F)F)cc23)c2ccccc21 [Compound 80] | = | 1.81 |
| FC(F)(F)c1cc2c(NC3CCCc4ncncc43)ncnc2[nH]1 (centres unmarked) [Compound 45] | > | 25 |
| COc1cc(CNc2ncnc3[nH]c(C4CC4)nc23)ccn1 [EP-0036032] | > | 25 |
| C[C@H](Nc1ncnc2[nH]c(C3CC3)nc12)c1ccccc1 [Compound 46] | = | 3.17 |
| C[C@@H](Nc1ncnc2[nH]c(C(F)(F)F)cc12)c1cncnc1 [Compound 70] | = | 21.6 |
| c1ccc(CCNc2ncnc3[nH]cnc23)cc1 [Compound 60] | = | 2.26 |
| CC(C)[C@@H](Nc1ncnc2[nH]c(C(F)(F)F)cc12)c1cncnc1 [Compound 26] | = | 6.85 |
| COc1ncc(CNc2ncnc3[nH]c(C(F)(F)F)cc23)cn1 [Compound 66] | = | 10.6 |
| c1ncc(CNc2ncnc3[nH]cnc23)cn1 [Compound 67] | = | 4.42 |
| FC(F)(F)c1cc2c(N[C@H]3COc4ccccc43)ncnc2[nH]1 [Compound 39] | = | 1.49 |
| C[C@@H](Nc1ncnc2[nH]c(C3CC3)nc12)c1ccccc1 [Compound 47] | > | 25 |
| Cc1nc2c(N[C@H](C)c3ccccc3)ncnc2[nH]1 [Compound 73] | > | 25 |
| OC[C@H](Nc1ncnc2[nH]c(C(F)(F)F)cc12)c1ccccc1 [Compound 76] | = | 14.7 |
| Cc1nc2c(N[C@@H](C)c3ccccc3)ncnc2[nH]1 [Compound 74] | = | 4.65 |
| c1ccc2c(c1)CC[C@@H]2Nc1ncnc2[nH]cnc12 [Compound 54] | = | 4.38 |
| COc1ccccc1CNc1ncnc2nc[nH]c12 [Compound 56] | = | 10.8 |
| CC(CNc1ncnc2[nH]cnc12)c1ccccc1 (centres unmarked) [Compound 65] | = | 3.61 |
| FC(F)(F)c1cc2c(NC3CCN(Cc4ccccc4)CC3)ncnc2[nH]1 [Compound 78] | = | 21.4 |
| CCC(Nc1ncnc2[nH]c(C(F)(F)F)cc12)c1cncnc1 (centres unmarked) [Compound 43] | = | 18.8 |
| c1ncc(CNc2ncnc3[nH]c(C4CC4)nc23)cn1 [EP-0036050] | > | 25 |
